target.entity: UniProt:P21554
Sequence (P21554 whole entry): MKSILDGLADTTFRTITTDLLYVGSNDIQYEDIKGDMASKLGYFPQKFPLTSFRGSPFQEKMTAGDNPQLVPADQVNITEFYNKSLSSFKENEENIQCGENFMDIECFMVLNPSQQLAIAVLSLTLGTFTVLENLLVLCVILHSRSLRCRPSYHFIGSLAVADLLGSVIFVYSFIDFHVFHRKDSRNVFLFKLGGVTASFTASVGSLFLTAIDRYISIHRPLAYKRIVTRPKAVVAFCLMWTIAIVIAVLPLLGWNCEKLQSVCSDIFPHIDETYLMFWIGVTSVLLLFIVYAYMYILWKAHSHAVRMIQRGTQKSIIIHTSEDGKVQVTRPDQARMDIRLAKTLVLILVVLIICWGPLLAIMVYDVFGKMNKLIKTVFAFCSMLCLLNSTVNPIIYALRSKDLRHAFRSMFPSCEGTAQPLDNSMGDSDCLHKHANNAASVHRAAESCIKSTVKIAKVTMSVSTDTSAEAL
test: Negative allosteric modulator activity at human CB1R expressed in CHO-K1 cells assessed as inhibition of CP55,940-induced beta-arrestin recruitment preincubated for 30 mins followed by CP55,940 addition measured for 90 mins by PathHunter assay
Assay type: cell-based
Doc: threshold 9 nM (exclusive). Items with EC50 beneath it return True; others return False.

CCc1c(C(=O)NCCc2ccc(N3CCCCC3)cc2)[nH]c2ccc(N=C=S)cc12    True
O=C(Nc1ccc(C(=O)c2ccccc2)cc1)Nc1cccc(-c2cccc(N3CCCC3)n2)c1    False
O=C(Nc1ccc(N=C=S)cc1)Nc1cccc(-c2cccc(N3CCCC3)n2)c1    False
[N-]=[N+]=Nc1ccc(NC(=O)Nc2cccc(-c3cccc(N4CCCC4)n3)c2)cc1    False

Turning to the following molecule.
Ask | Just wondering, is EC50 of O=C(NCCc1ccc(N2CCCCC2)cc1)c1[nH]c2ccc(Cl)cc2c1CCN=C=S below 9 nM?
Reply | False
